- System: P. aeruginosa NB52023 (efflux deficient K1542, ΔmexX ΔmexB)
- experiment.notes: microbe, parasite or virus in culture
- Type: cell-based
- condition.summary: Pseudomonas aeruginosa, 20 h, read-out: Antibacterial activity (MIC) NB52023
We begin with a simple list: items and their reported log10 MIC.
The base-10 logarithm of MIC, taken with MIC in µg/mL, is what appears here.

Cc1c(-c2ccc(N)nc2)c(F)cc2ccc(=O)n(C3CC3)c12	0.60
Cc1c(N2CC[C@H](O)C2)c(F)cc2c(CN)cc(=O)n(C3CC3)c12	-0.60

Query (compound): Cc1c(N2CC[C@@H]([C@H](C)N)C2)c(F)cc2c(C3=NOS(=O)N3)cc(=O)n(C3CC3)c12 (stereo partly drawn) ; field requested: log10 MIC 0.60

Query (compound): Cc1c(N2CC[C@@H]([C@H](C)N)C2)c(F)cc2c(CO)cc(=O)n(C3CC3)c12 ; field requested: log10 MIC 0.60

Query (compound): Cc1c(N2CCC(F)(CN)C2)c(F)cc2cc(CO)c(=O)n(C3CC3)c12 (stereo not drawn) ; field requested: log10 MIC 0.90

Query (compound): Cc1c(N2CC[C@@H]([C@H](C)N)C2)c(F)cc2c(C#N)cc(=O)n(C3CC3)c12 ; field requested: log10 MIC 0.00

Query (compound): Cc1c(N2CCC(CN)C2)c(F)cc2c(CNCCN)cc(=O)n(C3CC3)c12.O=C(O)C(F)(F)F (stereo not drawn) ; field requested: log10 MIC 0.60

Query (compound): Cc1c(N2CC[C@H](N)C2)c(F)cc2c(C#N)cc(=O)n(C3CC3)c12 ; field requested: log10 MIC 0.00

----------
- Tested on: P. aeruginosa NB52023-CDK0006 (gyrA T83I, parC S87L)
- experiment.notes: microbe, parasite or virus in culture
- Assay type: cell-based
- condition.summary: Pseudomonas aeruginosa, 20 h, read-out: Antibacterial activity (MIC) NB52023-CDK0006
Structures can show the parent of a compound that is named as a salt.
We begin with a simple list: items and their reported MIC.

Cc1c(-c2ccc(N)nc2)c(F)cc2cc(O)c(=O)n(C3CC3)c12 [Example 11.2]	> 32 µg/mL
COc1cc2cc(F)c(-c3ccc(N)nc3)c(C)c2n(C2CC2)c1=O [Example 7]	> 32 µg/mL
Cc1c(N2CC[C@@H]([C@H](C)N)C2)c(F)cc2c(OCC(N)=O)cc(=O)n(C3CC3)c12 [Example 56]	> 32 µg/mL
CCc1cc(=O)n(C2CC2)c2c(C)c(N3CC[C@@H]([C@H](C)N)C3)c(F)cc12 [Example 24]	> 32 µg/mL
Cc1c(N2CC[C@@H]([C@H](C)N)C2)c(F)cc2c(-c3noc(=O)[nH]3)cc(=O)n(C3CC3)c12 [Example 38]	> 32 µg/mL
Cc1c(N2CC[C@@H]([C@H](C)N)C2)ccc2c(OCc3ccccc3)cc(=O)n(C3CC3)c12 [Example 71, TFA salt]	> 32 µg/mL
CC(=O)N[C@@H](C)[C@@H]1CCN(c2c(F)cc3c(OCCN(C)C)cc(=O)n(C4CC4)c3c2C)C1 [Example 50]	> 32 µg/mL
Cc1c(N2CC[C@@H]([C@H](C)N)C2)c(F)cc2c(-c3nnn[nH]3)cc(=O)n(C3CC3)c12 [Example 39]	> 32 µg/mL
COc1c(C)c(=O)n(C2CC2)c2c(C)c(-c3ccc(N)nc3)ccc12 [Example 70]	> 32 µg/mL
COc1cc2ccc(-c3ccc(N)nc3)c(C)c2n(C2CC2)c1=O [Example 78, TFA salt]	> 32 µg/mL

Query (molecule): COc1cc2ccc(N3CC[C@@H]([C@H](C)N)C3)c(C)c2n(C2CC2)c1=O [Example 80, TFA salt] ; field requested: MIC > 32 µg/mL

Query (molecule): Cc1c(-c2ccc(N)nc2)ccc2cc(O)c(=O)n(C3CC3)c12 [Example 77, TFA salt] ; field requested: MIC > 32 µg/mL

Query (molecule): CCOC(=O)c1cc(=O)n(C2CC2)c2c(C)c(N3CC[C@@H]([C@H](C)N)C3)c(F)cc12 [Example 35] ; field requested: MIC 8 µg/mL

Query (molecule): Cc1c(N2CC[C@@H]([C@H](C)N)C2)c(F)cc2c(OCCNS(C)(=O)=O)cc(=O)n(C3CC3)c12 [Example 66] ; field requested: MIC > 32 µg/mL

Query (molecule): Cc1c(-c2ccc(N)nc2)ccc2ccc(=O)n(C3CC3)c12 [Example 75] ; field requested: MIC > 32 µg/mL

Query (molecule): Cc1c(N2CC[C@@H]([C@H](C)N)C2)c(F)cc2c(-c3cc(F)c(O)c(F)c3)cc(=O)n(C3CC3)c12 [Example 20] ; field requested: MIC 16 µg/mL

Query (molecule): Cc1c(N2CCC(CN)C2)c(F)cc2c(CN(C)C)cc(=O)n(C3CC3)c12.O=C(O)C(F)(F)F (centres unmarked) [Example 89] ; field requested: MIC 32 µg/mL

Query (molecule): CNCc1cc(=O)n(C2CC2)c2c(C)c(N3CCC(CN)C3)c(F)cc12.O=C(O)C(F)(F)F (centres unmarked) [Example 88] ; field requested: MIC 4 µg/mL
